These measurements were taken from patent US20230312550A1.

Please provide measured hFAP Binding assay k(on) for the entries that follow.
Subject of test: hFAP (M39-A757) (Homo sapiens (Human), UniProt Q12884)
Sequence (Q12884 39-757): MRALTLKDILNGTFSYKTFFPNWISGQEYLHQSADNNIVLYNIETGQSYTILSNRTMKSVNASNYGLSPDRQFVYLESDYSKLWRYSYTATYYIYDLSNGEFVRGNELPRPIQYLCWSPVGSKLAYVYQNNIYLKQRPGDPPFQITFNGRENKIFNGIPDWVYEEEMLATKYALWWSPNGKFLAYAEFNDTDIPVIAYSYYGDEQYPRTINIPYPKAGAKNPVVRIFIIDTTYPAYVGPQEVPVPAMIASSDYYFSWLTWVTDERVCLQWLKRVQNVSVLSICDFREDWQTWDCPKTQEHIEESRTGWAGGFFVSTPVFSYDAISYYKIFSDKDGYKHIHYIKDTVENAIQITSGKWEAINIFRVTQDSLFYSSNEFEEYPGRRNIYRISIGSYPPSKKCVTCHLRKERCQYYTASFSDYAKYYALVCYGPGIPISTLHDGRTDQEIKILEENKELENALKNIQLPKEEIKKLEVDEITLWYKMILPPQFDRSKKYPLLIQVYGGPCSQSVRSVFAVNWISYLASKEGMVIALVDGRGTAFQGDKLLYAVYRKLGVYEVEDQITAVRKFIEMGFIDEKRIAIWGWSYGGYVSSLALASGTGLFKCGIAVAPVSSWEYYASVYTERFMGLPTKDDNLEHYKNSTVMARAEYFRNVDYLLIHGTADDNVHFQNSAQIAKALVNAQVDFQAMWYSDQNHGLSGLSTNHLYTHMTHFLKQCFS
Assay explanation: hFAP binding assay (surface plasmon resonance)
Applied conditions: SPR, 20° C., single cycle kinetics
Provide the reading as a plain figure in M⁻¹ s⁻¹.

QUERY: Return reported hFAP Binding assay k(on); argument: "N#C[C@@H]1CSCN1C(=O)CNC(=O)c1ccnc2ccc(N3CC(N4CCOCC4)C3)cc12"
RESULT: 1300000

QUERY: Would you mind doing "N#C[C@@H]1CSCN1C(=O)CNC(=O)c1ccnc2ccc(N3CCCOCC3)cc12" as well?
RESULT: 3200000

QUERY: Would you mind doing "N#C[C@@H]1CSCN1C(=O)CNC(=O)c1ccnc2ccc(N3CCC(F)(F)C3)cc12" as well?
RESULT: 5600000

QUERY: Would you mind doing "C[C@H]1OCCN(c2ccc3nccc(C(=O)NCC(=O)N4CSC[C@H]4C#N)c3c2)[C@H]1C" as well?
RESULT: 1400000

QUERY: Would you mind doing "CS(=O)(=O)C[C@@H]1CN(c2ccc3nccc(C(=O)NCC(=O)N4CSC[C@H]4C#N)c3c2)CCO1" as well?
RESULT: 1900000

QUERY: Would you mind doing "CC1(C)CCN1c1ccc2nccc(C(=O)NCC(=O)N3CSC[C@H]3C#N)c2c1" as well?
RESULT: 4200000

QUERY: Would you mind doing "N#C[C@@H]1CSCN1C(=O)CNC(=O)c1ccnc2ccc(N3CC4(CCCC4(F)F)C3)cc12" as well?
RESULT: 1400000

QUERY: Would you mind doing "CC1(C)CN(c2ccc3nccc(C(=O)NCC(=O)N4CSC[C@H]4C#N)c3c2)C1" as well?
RESULT: 940000
